Source: patent US8324258B2

Tested On: F1F0-ATPase (Bos taurus)
Assay Protocol: Inhibition of ATP hydrolysis by the F1F0-ATPase
Format: biochemical
Protocol Conditions: IC40: concentration for 40% inhibition
// reported ATP Hydrolysis (IC40 μM) for each item listed

Below, each entry is followed by its recorded ATP Hydrolysis (IC40 μM) result.
INSERT INTO measurements (compound, tested_on, metric, assay_value) VALUES
  ('O=C(/N=C(\Nc1ccc(-c2ccccc2)cc1)Nc1ccc2[nH]ccc2c1)c1cccc(Cl)c1 [IV-8]', 'F1F0-ATPase (Bos taurus)', 'ATP Hydrolysis (IC40 μM)', '>30 µM'),
  ('O=C(N=C(NCCc1c[nH]cn1)Nc1ccc2ccccc2c1)c1cccc(Cl)c1 [III-26]', 'F1F0-ATPase (Bos taurus)', 'ATP Hydrolysis (IC40 μM)', '>10 µM'),
  ('O=C(N=C(NCCc1c[nH]cn1)Nc1ccccc1Br)c1cccc(Cl)c1 [III-2]', 'F1F0-ATPase (Bos taurus)', 'ATP Hydrolysis (IC40 μM)', '>20 µM'),
  ('O=C(N=C(NCCc1c[nH]cn1)Nc1cccc(-c2ccccc2)c1)c1ccc(C(F)(F)F)cc1 [VI-4]', 'F1F0-ATPase (Bos taurus)', 'ATP Hydrolysis (IC40 μM)', '>10 µM');

Here's the next entry for you.
[ask] Give the measured ATP Hydrolysis (IC40 μM) for O=C(N=C(NCCc1c[nH]cn1)Nc1ccc(C(F)(F)F)cc1)c1cccc(Cl)c1 [III-25]
[reply] <10 µM

====

// reported ATP Synthesis (IC40 μM) for each item listed
Tested On: F1F0-ATPase (Bos taurus, UniProt P13621)
Assay Protocol: Inhibition of ATP synthesis by the F1F0-ATPase
Assay type: biochemical
Protocol Conditions: IC40: concentration for 40% inhibition

INSERT INTO results (smiles, tested_on, assay_value) VALUES
  ('N#Cc1ccc(-c2ccc(NC(=NC(=O)c3cccc(Cl)c3)NCCc3c[nH]cn3)cc2)cc1', 'F1F0-ATPase (Bos taurus, UniProt P13621)', '<10 µM'),
  ('O=C(N=C(NCCc1c[nH]cn1)Nc1ccccc1Br)c1cccc(Cl)c1', 'F1F0-ATPase (Bos taurus, UniProt P13621)', '<10 µM');

[ask] Give the measured ATP Synthesis (IC40 μM) for O=C(N=C(NCCc1c[nH]cn1)Nc1cccc(-c2ccccc2)c1)c1cccc(Br)c1
[reply] <10 µM

[ask] Give the measured ATP Synthesis (IC40 μM) for O=C(N=C(NCCc1c[nH]cn1)Nc1ccc(-c2ccccc2)cc1)c1cccc(C(F)(F)F)c1
[reply] >10 µM

[ask] Give the measured ATP Synthesis (IC40 μM) for O=C(N=C(NCCc1c[nH]cn1)Nc1cccc(C(F)(F)F)c1)c1cccc(Cl)c1
[reply] <10 µM

[ask] Give the measured ATP Synthesis (IC40 μM) for O=C(N=C(NCCc1c[nH]cn1)Nc1ccc2ccccc2c1)c1cccc(Cl)c1
[reply] >10 µM

[ask] Give the measured ATP Synthesis (IC40 μM) for Cc1cccc(C(=O)N=C(NCCc2c[nH]cn2)Nc2ccc(-c3ccccc3)cc2)c1
[reply] >10 µM

[ask] Give the measured ATP Synthesis (IC40 μM) for N#Cc1cccc(C(=O)N=C(NCCc2c[nH]cn2)Nc2ccc(-c3ccccc3)cc2)c1
[reply] >20 µM

[ask] Give the measured ATP Synthesis (IC40 μM) for N#Cc1ccc(C(=O)N=C(NCCc2c[nH]cn2)Nc2ccc(-c3ccccc3)cc2)cc1
[reply] >20 µM

[ask] Give the measured ATP Synthesis (IC40 μM) for O=C(N=C(NCCc1c[nH]cn1)Nc1cccc(-c2ccccc2)c1)c1ccc(Cl)c(Cl)c1
[reply] <10 µM

[ask] Give the measured ATP Synthesis (IC40 μM) for Cc1cccc(-c2ccc(NC(=NC(=O)c3cccc(Cl)c3)NCCc3c[nH]cn3)cc2)c1
[reply] >10 µM
